Parameter 'readout' = Ki; parameter 'system' = Rho kinase 1 (ROCK-I) (Homo sapiens, UniProt Q13464).
Sequence (Q13464 whole entry): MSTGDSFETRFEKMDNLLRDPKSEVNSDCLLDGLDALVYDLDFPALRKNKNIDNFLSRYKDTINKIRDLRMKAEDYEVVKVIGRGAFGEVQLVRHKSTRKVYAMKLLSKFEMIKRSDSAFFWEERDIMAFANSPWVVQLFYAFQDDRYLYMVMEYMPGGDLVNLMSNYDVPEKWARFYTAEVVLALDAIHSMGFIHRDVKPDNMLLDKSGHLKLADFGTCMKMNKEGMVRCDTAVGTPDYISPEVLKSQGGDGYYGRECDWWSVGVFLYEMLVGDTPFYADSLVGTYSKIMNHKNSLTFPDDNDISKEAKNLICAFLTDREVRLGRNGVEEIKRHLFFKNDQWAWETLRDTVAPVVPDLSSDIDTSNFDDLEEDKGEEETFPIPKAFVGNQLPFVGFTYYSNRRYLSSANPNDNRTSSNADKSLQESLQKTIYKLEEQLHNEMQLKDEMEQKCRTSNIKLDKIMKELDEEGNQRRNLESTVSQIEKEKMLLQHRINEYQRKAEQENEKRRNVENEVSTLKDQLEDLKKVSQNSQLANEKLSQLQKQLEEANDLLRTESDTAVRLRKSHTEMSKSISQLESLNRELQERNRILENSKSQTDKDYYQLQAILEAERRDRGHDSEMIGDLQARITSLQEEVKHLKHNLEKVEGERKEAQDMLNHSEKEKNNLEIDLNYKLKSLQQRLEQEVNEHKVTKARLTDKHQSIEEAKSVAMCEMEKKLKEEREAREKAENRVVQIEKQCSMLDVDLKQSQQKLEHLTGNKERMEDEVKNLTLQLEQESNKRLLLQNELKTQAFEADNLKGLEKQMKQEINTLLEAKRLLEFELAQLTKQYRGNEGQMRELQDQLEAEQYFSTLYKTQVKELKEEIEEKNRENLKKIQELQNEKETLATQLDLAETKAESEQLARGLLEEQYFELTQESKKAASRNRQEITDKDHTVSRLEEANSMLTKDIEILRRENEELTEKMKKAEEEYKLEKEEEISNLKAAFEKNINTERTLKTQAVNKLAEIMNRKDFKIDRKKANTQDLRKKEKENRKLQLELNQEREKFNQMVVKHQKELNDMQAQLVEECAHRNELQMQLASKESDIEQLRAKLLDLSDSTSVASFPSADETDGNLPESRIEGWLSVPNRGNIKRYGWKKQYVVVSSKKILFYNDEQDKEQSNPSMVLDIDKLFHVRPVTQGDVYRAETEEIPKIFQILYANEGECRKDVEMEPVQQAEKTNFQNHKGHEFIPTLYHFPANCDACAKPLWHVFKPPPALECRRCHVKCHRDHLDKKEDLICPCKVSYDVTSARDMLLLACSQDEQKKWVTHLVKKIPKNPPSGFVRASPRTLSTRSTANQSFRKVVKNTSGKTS

Illustrative cases are given below, each with its answer.
Cc1c[nH]c2nccc(Oc3ccc(CC(N)C(=O)NCCc4ccncc4)cc3F)c12 (single isomer, unassigned) [Example 57A]; 3 to 30 nM
Cc1c[nH]c2nccc(Oc3ccc(C[C@@H](N)C(=O)NC4CCCCC4)cc3)c12; 3 to 30 nM
Cc1c[nH]c2nccc(Oc3ccc(CC(N)C(=O)N4CCN(Cc5ccccc5)CC4)cc3F)c12 (stereo not drawn) [Example 132]; < 3 nM
Cc1c[nH]c2nccc(Oc3ccc(CC(N)C(=O)N4CCN(Cc5ccccc5)CC4)cc3F)c12 (single isomer, unassigned) [Example 132A]; < 3 nM
CN(CC1CCCCC1)C(=O)[C@H](N)Cc1ccc(Oc2ccnc3[nH]ccc23)cc1; > 30 nM
Cc1c[nH]c2nccc(Oc3ccc(C[C@H](N)C(=O)N4CCN(C(=O)Cc5ccccc5)CC4)cc3F)c12; < 3 nM
Cc1c[nH]c2nccc(Oc3ccc(CC(N)C(=O)N4CCN(Cc5ccccc5)CC4)cc3F)c12 (single isomer, unassigned) [Example 132B]; 3 to 30 nM
Cc1c[nH]c2ncnc(Oc3ccc(C[C@H](N)C(=O)N4CCC(Oc5cccnc5)CC4)cc3F)c12; 3 to 30 nM

Task item: Recall the reported Ki of CN1CCC(NC(=O)[C@@H](N)Cc2ccc(Oc3ccnc4[nH]cc(C#N)c34)c(F)c2)CC1 when tested on Rho kinase 1 (ROCK-I) (Homo sapiens, UniProt Q13464).
Reply: < 3 nM

Task item: Recall the reported Ki of Cc1c[nH]c2nccc(Oc3ccc(CC(N)C(=O)N4CCN(C)CC4)cc3F)c12 (stereo not drawn) when tested on Rho kinase 1 (ROCK-I) (Homo sapiens, UniProt Q13464).
Reply: < 3 nM

Task item: Recall the reported Ki of N[C@@H](Cc1ccc(Oc2ccnc3[nH]cc(Cl)c23)cc1)C(=O)NC1CCCCC1 when tested on Rho kinase 1 (ROCK-I) (Homo sapiens, UniProt Q13464).
Reply: < 3 nM

Task item: Recall the reported Ki of Cc1c[nH]c2nccc(Oc3ccc(C[C@H](N)C(=O)N4CCN(CC5CCN(S(C)(=O)=O)CC5)CC4)cc3F)c12 when tested on Rho kinase 1 (ROCK-I) (Homo sapiens, UniProt Q13464).
Reply: < 3 nM

Task item: Recall the reported Ki of Cc1c[nH]c2nccc(Oc3ccc(C[C@H](N)C(=O)N4CC[C@@H](N(C)C)C4)cc3F)c12 when tested on Rho kinase 1 (ROCK-I) (Homo sapiens, UniProt Q13464).
Reply: < 3 nM

Task item: Recall the reported Ki of Cc1c[nH]c2nccc(Oc3ccc(CC(N)C(=O)NCCc4ccncc4)cc3F)c12 (stereo not drawn) [Example 57] when tested on Rho kinase 1 (ROCK-I) (Homo sapiens, UniProt Q13464).
Reply: < 3 nM

Task item: Recall the reported Ki of N[C@@H](Cc1ccc(Oc2ccnc3[nH]cc(CO)c23)c(F)c1)C(=O)NC1CCOCC1 when tested on Rho kinase 1 (ROCK-I) (Homo sapiens, UniProt Q13464).
Reply: 3 to 30 nM

====

pKi: −log10 of the molar value.
Parameter 'readout' = pKi; parameter 'system' = Rho kinase 2 (ROCK-II) (Homo sapiens).
Sequence (O75116 whole entry): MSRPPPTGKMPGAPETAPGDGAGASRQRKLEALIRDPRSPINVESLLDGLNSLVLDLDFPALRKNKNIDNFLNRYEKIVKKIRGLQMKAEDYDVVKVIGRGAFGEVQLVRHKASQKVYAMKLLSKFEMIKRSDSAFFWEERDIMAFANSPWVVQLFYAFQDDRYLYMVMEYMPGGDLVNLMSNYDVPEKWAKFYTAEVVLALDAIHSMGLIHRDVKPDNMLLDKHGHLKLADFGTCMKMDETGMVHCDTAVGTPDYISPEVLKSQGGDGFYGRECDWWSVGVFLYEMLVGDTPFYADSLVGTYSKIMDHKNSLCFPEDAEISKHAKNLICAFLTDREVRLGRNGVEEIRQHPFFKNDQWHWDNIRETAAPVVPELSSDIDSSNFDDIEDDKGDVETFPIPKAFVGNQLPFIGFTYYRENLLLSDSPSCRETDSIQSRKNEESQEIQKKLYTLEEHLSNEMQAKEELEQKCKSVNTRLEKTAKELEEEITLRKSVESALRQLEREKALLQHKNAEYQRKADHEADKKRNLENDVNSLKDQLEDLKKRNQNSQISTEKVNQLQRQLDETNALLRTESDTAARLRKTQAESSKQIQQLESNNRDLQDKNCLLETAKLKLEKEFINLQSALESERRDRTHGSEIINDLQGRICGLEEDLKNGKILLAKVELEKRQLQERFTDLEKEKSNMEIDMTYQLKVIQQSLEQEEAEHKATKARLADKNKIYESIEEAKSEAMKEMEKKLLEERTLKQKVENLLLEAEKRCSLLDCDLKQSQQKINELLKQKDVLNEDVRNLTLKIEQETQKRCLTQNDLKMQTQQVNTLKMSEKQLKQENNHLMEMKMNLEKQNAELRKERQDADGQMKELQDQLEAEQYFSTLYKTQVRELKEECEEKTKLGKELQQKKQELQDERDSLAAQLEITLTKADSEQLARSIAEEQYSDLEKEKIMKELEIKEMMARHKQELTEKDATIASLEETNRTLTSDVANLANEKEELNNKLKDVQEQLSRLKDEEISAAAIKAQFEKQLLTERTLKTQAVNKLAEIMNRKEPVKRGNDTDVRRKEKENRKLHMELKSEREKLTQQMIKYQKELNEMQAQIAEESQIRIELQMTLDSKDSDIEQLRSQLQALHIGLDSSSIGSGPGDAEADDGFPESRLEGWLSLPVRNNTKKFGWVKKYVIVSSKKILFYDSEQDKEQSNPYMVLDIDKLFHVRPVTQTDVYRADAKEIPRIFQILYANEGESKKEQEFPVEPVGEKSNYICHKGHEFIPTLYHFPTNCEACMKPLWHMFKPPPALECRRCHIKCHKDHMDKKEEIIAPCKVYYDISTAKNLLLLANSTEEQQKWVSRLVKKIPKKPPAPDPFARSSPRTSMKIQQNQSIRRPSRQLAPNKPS

N[C@@H](Cc1ccc(Oc2ccnc3[nH]ccc23)cc1)C(=O)NC1CCOCC1 [Example 99]; 7.52 to 8.52

Task item: Recall the reported pKi of Cc1c[nH]c2nccc(Oc3ccc(CC(N)C(=O)N4CCN(C5CC5)CC4)cc3F)c12 (stereo not drawn) [Example 60] when tested on Rho kinase 2 (ROCK-II) (Homo sapiens).
Reply: > 8.52

Task item: Recall the reported pKi of CN1CCC(NC(=O)[C@@H](N)Cc2ccc(Oc3ccnc4[nH]cc(C#N)c34)c(F)c2)CC1 [Example 222] when tested on Rho kinase 2 (ROCK-II) (Homo sapiens).
Reply: > 8.52

Task item: Recall the reported pKi of Cc1c[nH]c2nccc(Oc3ccc(CC(N)C(=O)N4CCCC4c4ccccc4)cc3F)c12 (single isomer, unassigned) [Example 84] when tested on Rho kinase 2 (ROCK-II) (Homo sapiens).
Reply: 7.52 to 8.52

Task item: Recall the reported pKi of Cc1c[nH]c2nccc(Oc3ccc(CC(N)C(=O)N4CCN(CC5CC5)CC4)cc3F)c12 (stereo not drawn) [Example 58] when tested on Rho kinase 2 (ROCK-II) (Homo sapiens).
Reply: > 8.52

Task item: Recall the reported pKi of Cc1c[nH]c2nccc(Oc3ccc(C[C@H](N)C(=O)NCC4CCN(C)CC4)cc3F)c12 [Example 40] when tested on Rho kinase 2 (ROCK-II) (Homo sapiens).
Reply: > 8.52

Task item: Recall the reported pKi of Cc1c[nH]c2ncnc(Oc3ccc(C[C@H](N)C(=O)NC4CCOCC4)cc3F)c12 [Example 125] when tested on Rho kinase 2 (ROCK-II) (Homo sapiens).
Reply: 7.52 to 8.52

Task item: Recall the reported pKi of Cc1c[nH]c2nccc(Oc3ccc(C[C@@H](C(=O)NC4CCCCC4)N(C)C)cc3)c12 [Example 184] when tested on Rho kinase 2 (ROCK-II) (Homo sapiens).
Reply: > 8.52

Task item: Recall the reported pKi of Cc1c[nH]c2ncnc(Oc3ccc(C[C@H](N)C(=O)NCCc4ccncc4)cc3F)c12 [Example 128] when tested on Rho kinase 2 (ROCK-II) (Homo sapiens).
Reply: > 8.52

Task item: Recall the reported pKi of Cc1c[nH]c2nccc(Oc3ccc(C[C@H](N)C(=O)NC4CCOCC4)cc3)c12 [Example 90] when tested on Rho kinase 2 (ROCK-II) (Homo sapiens).
Reply: > 8.52

Task item: Recall the reported pKi of CNC(=O)c1cccc(CN2CCN(C(=O)[C@@H](N)Cc3ccc(Oc4ccnc5[nH]cc(C)c45)c(F)c3)CC2)c1 [Example 165] when tested on Rho kinase 2 (ROCK-II) (Homo sapiens).
Reply: > 8.52

Task item: Recall the reported pKi of N#Cc1c[nH]c2nccc(Oc3ccc(C[C@H](N)C(=O)NC4CCOCC4)cc3)c12 [Example 218] when tested on Rho kinase 2 (ROCK-II) (Homo sapiens).
Reply: > 8.52

Task item: Recall the reported pKi of Cc1c[nH]c2nccc(Oc3ccc(C[C@H](N)C(=O)N4CCN5CCOCC5C4)cc3F)c12 (stereo partly drawn) [Example 16] when tested on Rho kinase 2 (ROCK-II) (Homo sapiens).
Reply: > 8.52

Task item: Recall the reported pKi of CN(Cc1ccccc1)C(=O)[C@@H](N)Cc1ccc(Oc2ccnc3[nH]ccc23)cc1 [Example 93] when tested on Rho kinase 2 (ROCK-II) (Homo sapiens).
Reply: 7.52 to 8.52

Task item: Recall the reported pKi of Cc1c[nH]c2ncnc(Oc3ccc(C[C@H](N)C(=O)N4CCN(Cc5ccccc5)CC4)cc3F)c12 [Example 115] when tested on Rho kinase 2 (ROCK-II) (Homo sapiens).
Reply: > 8.52

Task item: Recall the reported pKi of Cc1c[nH]c2nccc(Oc3ccc(C[C@H](N)C(=O)N4CCN(C)C(c5ccccc5)C4)cc3F)c12 (mixture of isomers) [Example 6] when tested on Rho kinase 2 (ROCK-II) (Homo sapiens).
Reply: > 8.52

Task item: Recall the reported pKi of Cc1c[nH]c2nccc(Oc3ccc(C[C@H](N)C(=O)N[C@H]4CN5CCC4CC5)cc3F)c12 [Example 46] when tested on Rho kinase 2 (ROCK-II) (Homo sapiens).
Reply: > 8.52

Task item: Recall the reported pKi of N[C@@H](Cc1ccc(Oc2ccnc3[nH]cc(CO)c23)c(F)c1)C(=O)NC1CCOCC1 [Example 209] when tested on Rho kinase 2 (ROCK-II) (Homo sapiens).
Reply: > 8.52

Task item: Recall the reported pKi of N[C@@H](Cc1ccc(Oc2ccnc3[nH]cc(-c4cnoc4)c23)cc1)C(=O)N1CCN(Cc2ccccc2)CC1 [Example 198] when tested on Rho kinase 2 (ROCK-II) (Homo sapiens).
Reply: > 8.52

Task item: Recall the reported pKi of N[C@@H](Cc1ccc(Oc2ccnc3[nH]cc(-c4cncs4)c23)cc1)C(=O)N1CCN(Cc2ccccc2)CC1 [Example 196] when tested on Rho kinase 2 (ROCK-II) (Homo sapiens).
Reply: > 8.52

Task item: Recall the reported pKi of N[C@@H](Cc1ccc(Oc2ccnc3[nH]cc(-c4ccc(O)cc4)c23)cc1)C(=O)NCCc1ccncc1 [Example 206] when tested on Rho kinase 2 (ROCK-II) (Homo sapiens).
Reply: > 8.52

Task item: Recall the reported pKi of CN1CCC(NC(=O)[C@H](N)Cc2ccc(Oc3ccnc4[nH]ccc34)cc2)CC1 [Example 104] when tested on Rho kinase 2 (ROCK-II) (Homo sapiens).
Reply: < 7.52

Task item: Recall the reported pKi of Cc1c[nH]c2nccc(Oc3ccc(C[C@H](N)C(=O)N4C[C@@H](C)N(C)[C@@H](C)C4)cc3F)c12 [Example 17] when tested on Rho kinase 2 (ROCK-II) (Homo sapiens).
Reply: > 8.52

Task item: Recall the reported pKi of Cc1c[nH]c2nccc(Oc3ccc(CC(N)C(=O)NCCc4ccncc4)cc3F)c12 (single isomer, unassigned) [Example 57B] when tested on Rho kinase 2 (ROCK-II) (Homo sapiens).
Reply: > 8.52

Data origin, for the record: patent US10501461B2
